Every entry's value here was drawn from patent EP1257544B1.

# Tested on: Dissociated VM cells
# assay-info: Neuroprotection Assay (NMDA-induced neuroexcitotoxic injury, high affinity 3H-dopamine uptake)
# Type: cell-based, Sprague-Dawley rat
# details: embryonic day 15 rat ventral mesencephalic cultures, NMDA (100-400 µM) for 20 hours
pEC50: −log10 of the molar value. Where a name gives a salt, the structure may show the parent alone.
Items are presented alongside their recorded pEC50.

Please review the following examples before continuing.
O=C([C@@H]1CCCN1Cc1ccccc1)N1CCC(Cc2ccccc2)CC1 [Compound 52, hydrochloride] ... > 7.00
CCN1CCCC[C@H]1C(=O)N1CCN(C(c2ccccc2)c2ccc(Cl)cc2)CC1 (some centres unmarked) [Compound 41, dihydrochloride] ... > 7.00
CCN1CCCC[C@H]1C(=O)N1CCC(Cc2ccccc2)CC1 ... > 7.00
O=C([C@@H]1CCCN1Cc1ccccc1)N1CCC(Cc2ccc(F)cc2)CC1 [Compound 49, hydrochloride] ... > 7.00
CN1CCCC(C(=O)N2CCN(C(c3ccc(F)cc3)c3ccc(F)cc3)CC2)C1 (centres unmarked) ... < 6.30
O=C([C@@H]1CCCN1Cc1ccccc1)N1CCN(Cc2ccc(F)cc2)CC1 ... < 6.30

For O=C([C@@H]1CCCCN1Cc1ccccc1)N1CCN(C(c2ccc(F)cc2)c2ccc(F)cc2)CC1 the compound record lists pEC50 as 6.30 to 7.00

# pEC50 (compound: Fc1ccc(CC2CCN(C[C@@H]3CCCN3Cc3ccccc3)CC2)cc1 [Compound 103, dihydrochloride] ) is > 7.00

Just so you know, measured pEC50 for O=C([C@@H]1CCCCN1Cc1ccc(F)cc1)N1CCN(C(c2ccccc2)c2ccccc2)CC1 came out at > 7.00

Measured pEC50, CN1CCC(C(=O)N2CCN(C(c3ccc(F)cc3)c3ccc(F)cc3)CC2)CC1 : 6.30 to 7.00

Noted for CCN1CCC(C(=O)N2CCC(Cc3ccc(F)cc3)CC2)CC1 : its pEC50 reads 6.30 to 7.00
